For each record, write down the corresponding % subjects with ADA binding (10 subjects) (% of subjects).
biological target: pre-existing anti-VH ADA in human serum; test: ADA confirmation assay (MSD): 10 ug/mL test material against labelled DOM1H-131-206; share of 10 ADA-positive sera with binding
One number for each entry.

Example cases with answers are listed next.
| Binder | Observed Measurement |
| --- | --- |
| DOM1H-131-206 G44E, H91S (other, name in Kabat numbering, VH dAb variant) VH: EVQLLESGGGLVQPGGSLRLSCAASGFTFAHETMVWVRQAPGKELEWVSHIPPDGQDPFYADSVKGRFTISRDNSKNTLYLQMNSLRAEDTAVYSCALLPKRGPWFDYWGQGTLVTVSS | 100 |
| DOM1H-131-206 (other, human anti-TNFR1 VH domain antibody (dAb); biotinylated or Sulfo-Tag labelled where it is the assay reagent) VH: EVQLLESGGGLVQPGGSLRLSCAASGFTFAHETMVWVRQAPGKGLEWVSHIPPDGQDPFYADSVKGRFTISRDNSKNTLYLQMNSLRAEDTAVYHCALLPKRGPWFDYWGQGTLVTVSS | 100 |
| DOM1H-131-206 H91S (other, name in Kabat numbering, VH dAb variant) VH: EVQLLESGGGLVQPGGSLRLSCAASGFTFAHETMVWVRQAPGKGLEWVSHIPPDGQDPFYADSVKGRFTISRDNSKNTLYLQMNSLRAEDTAVYSCALLPKRGPWFDYWGQGTLVTVSS | 100 |

Give measured % subjects with ADA binding (10 subjects) (% of subjects) for every item shown.
1. DOM1H-131-206 R83A (other, name in Kabat numbering, VH dAb variant) VH: EVQLLESGGGLVQPGGSLRLSCAASGFTFAHETMVWVRQAPGKGLEWVSHIPPDGQDPFYADSVKGRFTISRDNSKNTLYLQMNSLAAEDTAVYHCALLPKRGPWFDYWGQGTLVTVSS
2. DOM1H-131-206 P14A, H91S (other, name in Kabat numbering, VH dAb variant) VH: EVQLLESGGGLVQAGGSLRLSCAASGFTFAHETMVWVRQAPGKGLEWVSHIPPDGQDPFYADSVKGRFTISRDNSKNTLYLQMNSLRAEDTAVYSCALLPKRGPWFDYWGQGTLVTVSS
3. DOM1H-131-206 P14A, G44E (other, name in Kabat numbering, VH dAb variant) VH: EVQLLESGGGLVQAGGSLRLSCAASGFTFAHETMVWVRQAPGKELEWVSHIPPDGQDPFYADSVKGRFTISRDNSKNTLYLQMNSLRAEDTAVYHCALLPKRGPWFDYWGQGTLVTVSS
4. DOM1H-131-206 G44E (other, name in Kabat numbering, VH dAb variant) VH: EVQLLESGGGLVQPGGSLRLSCAASGFTFAHETMVWVRQAPGKELEWVSHIPPDGQDPFYADSVKGRFTISRDNSKNTLYLQMNSLRAEDTAVYHCALLPKRGPWFDYWGQGTLVTVSS

Return:
1. 100
2. 60
3. 100
4. 100

List the reported % subjects with ADA binding (10 subjects) (% of subjects) of each binder below.
1. DOM1H-131-206 C-terminal ASTK (protein) VH: EVQLLESGGGLVQPGGSLRLSCAASGFTFAHETMVWVRQAPGKGLEWVSHIPPDGQDPFYADSVKGRFTISRDNSKNTLYLQMNSLRAEDTAVYHCALLPKRGPWFDYWGQGTLVTVSSASTK
2. DOM1H-131-206 G44E, L108Q (other, name in Kabat numbering, VH dAb variant) VH: EVQLLESGGGLVQPGGSLRLSCAASGFTFAHETMVWVRQAPGKELEWVSHIPPDGQDPFYADSVKGRFTISRDNSKNTLYLQMNSLRAEDTAVYHCALLPKRGPWFDYWGQGTQVTVSS
3. DOM1H-131-206 C-terminal AST (protein) VH: EVQLLESGGGLVQPGGSLRLSCAASGFTFAHETMVWVRQAPGKGLEWVSHIPPDGQDPFYADSVKGRFTISRDNSKNTLYLQMNSLRAEDTAVYHCALLPKRGPWFDYWGQGTLVTVSSAST

Return:
40
100
50
